assayed.target: TLR7 (Homo sapiens)
Construct: Human peripheral blood mononuclear cells (PBMCs) consist of lymphocytes, monocytes and dendritic cells that express TLR7, TLR8 and TLR9; endogenous in cells
test.description: TLR7 human peripheral blood mononuclear cell (PBMC) cell-based assay
assay.context: human PBMCs; 1 h with test antagonist, then TLR7 agonist GS-986 400 nM for 6 h; cytokines (IL-6 and IFNα) in supernatant; read-out: TLR-7 EC50
pEC50: −log10 of the molar value.
pEC50 values for the compounds below.
measurement.name: pEC50

Cc1c(-c2ccc(N3CCNCC3)cc2)sc2[nH]c(-c3cn4ncnc4c4c3CCC4)c(C(C)C)c12 ... 9.29
Cc1nc2c3c(c(-c4[nH]c5sc(C6CCN(CC(N)=O)CC6)c(C)c5c4C(C)C)cn2n1)COC3 ... 8.39
Cc1c(-c2ccc(N3CCNCC3)nc2)sc2[nH]c(-c3cn4ncnc4c4c3CCC4)c(C(C)C)c12 ... 9.64
Cc1c(C2CCN(S(=O)(=O)N3CCNCC3)CC2)sc2[nH]c(-c3cn4ncnc4c4c3CCC4)c(C(C)C)c12 ... 9.49
CC(C)c1c(-c2cn3ncnc3c3c2CCC3)[nH]c2sc(C(=O)N(C)C3CCNCC3)cc12 ... 9.31
CC(C)c1c(-c2cn3ncnc3c3c2CCC3)[nH]c2sc(C3CCN(CC(N)=O)CC3)cc12 ... 9.24
Cc1c(-c2cn(C3CCNCC3)nn2)sc2[nH]c(-c3cn4ncnc4c4c3CCC4)c(C(C)C)c12 ... 9.03
Cc1c(C2CCN(C(=O)[C@H]3C[C@@]4(CNCCO4)C3)CC2)sc2[nH]c(-c3cn4ncnc4c4c3CCC4)c(C(C)C)c12 ... 10.30
Cc1c([C@@H]2C[C@@H]3C[C@H]2CN3CC(N)=O)sc2[nH]c(-c3cn4ncnc4c4c3COC4)c(C(C)C)c12 ... 9.41
Cc1c(C2CC3CCC(C2)N3)sc2[nH]c(-c3cn4ncnc4c4c3CCC4)c(C(C)C)c12 (stereo not drawn) ... 9.02
Cc1c(C2CCNCC2)sc2[nH]c(-c3cn4ncnc4c4c3CCO4)c(C(C)C)c12 ... 9.48
Cc1c(C2C[C@@H]3C[C@H]2CN3CC(N)=O)sc2[nH]c(-c3cn4ncnc4c4c3CCC4)c(C(C)C)c12 (stereo partly drawn) ... 9.16
Cc1nc2c3c(c(-c4[nH]c5sc(C6CCN(CC(N)=O)CC6)c(C)c5c4C(C)C)cn2n1)CCC3 ... 9.11
Cc1c(C2CCN(CC(N)=O)CC2)sc2[nH]c(-c3cn4ncnc4c4c3CCO4)c(C(C)C)c12 ... 8.35
CC(C)c1c(-c2cn3ncnc3c3c2CCC3)[nH]c2sc(C3CCN(C(=O)[C@H]4COCCN4)CC3)cc12 ... 8.63

###

assayed.target: TLR7 (Homo sapiens)
Construct: Human peripheral blood mononuclear cells (PBMCs) consist of lymphocytes, monocytes and dendritic cells that express TLR7, TLR8 and TLR9; endogenous in cells
Sequence (Q9NYK1 27-1049): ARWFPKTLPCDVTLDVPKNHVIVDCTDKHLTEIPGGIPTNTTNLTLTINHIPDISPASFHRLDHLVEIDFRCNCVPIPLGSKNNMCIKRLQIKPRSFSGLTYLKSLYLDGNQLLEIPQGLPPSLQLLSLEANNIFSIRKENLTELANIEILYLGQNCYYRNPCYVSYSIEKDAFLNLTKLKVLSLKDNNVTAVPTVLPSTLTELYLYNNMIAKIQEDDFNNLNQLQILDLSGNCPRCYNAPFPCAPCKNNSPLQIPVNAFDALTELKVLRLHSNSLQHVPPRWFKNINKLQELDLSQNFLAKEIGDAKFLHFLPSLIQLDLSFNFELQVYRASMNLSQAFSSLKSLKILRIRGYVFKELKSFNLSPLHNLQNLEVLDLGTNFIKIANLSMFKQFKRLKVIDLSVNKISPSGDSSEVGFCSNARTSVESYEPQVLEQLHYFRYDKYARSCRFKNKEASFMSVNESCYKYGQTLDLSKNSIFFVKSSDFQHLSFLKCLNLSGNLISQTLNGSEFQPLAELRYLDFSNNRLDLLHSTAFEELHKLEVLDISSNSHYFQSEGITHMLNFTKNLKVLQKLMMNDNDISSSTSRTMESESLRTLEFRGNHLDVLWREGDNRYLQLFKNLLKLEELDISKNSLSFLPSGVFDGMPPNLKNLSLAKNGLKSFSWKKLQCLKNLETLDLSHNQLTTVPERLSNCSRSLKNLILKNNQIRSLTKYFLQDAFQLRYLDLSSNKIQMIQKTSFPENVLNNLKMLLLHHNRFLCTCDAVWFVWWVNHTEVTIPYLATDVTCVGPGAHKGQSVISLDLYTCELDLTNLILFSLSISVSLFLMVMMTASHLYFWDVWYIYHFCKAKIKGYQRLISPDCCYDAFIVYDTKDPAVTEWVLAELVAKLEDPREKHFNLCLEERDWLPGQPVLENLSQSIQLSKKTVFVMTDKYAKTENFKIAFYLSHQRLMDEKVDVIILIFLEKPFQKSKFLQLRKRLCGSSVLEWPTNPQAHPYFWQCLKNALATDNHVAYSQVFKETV
test.description: TLR7 human peripheral blood mononuclear cell (PBMC) cell-based assay
assay.context: human PBMCs; 1 h with test antagonist, then TLR7 agonist GS-986 400 nM for 6 h; cytokines (IL-6 and IFNα) in supernatant; read-out: TLR-7 EC50
Listed below: EC50 values for each entry.
measurement.name: EC50 (pM)

Cc1c(C2CC3CCC(C2)N3CC(N)=O)sc2[nH]c(-c3cn4ncnc4c4c3CCC4)c(C(C)C)c12 (centres unmarked) ... 780
Cc1c([C@@H]2C[C@H]3CC[C@@H](C2)N3CC(N)=O)sc2[nH]c(-c3cn4ncnc4c4c3COC4)c(C(C)C)c12 ... 410
Cc1c([C@@H]2C[C@@H]3C[C@H]2CN3CC(N)=O)sc2[nH]c(-c3cn4ncnc4c4c3CCO4)c(C(C)C)c12 ... 580
Cc1c(C2CCN(C(=O)[C@@H]3C[C@H](C(F)(F)F)CN3)CC2)sc2[nH]c(-c3cn4ncnc4c4c3CCC4)c(C(C)C)c12 ... 3400
CO[C@H]1CN[C@@H](C(=O)N2CCC(c3sc4[nH]c(-c5cn6ncnc6c6c5CCC6)c(C(C)C)c4c3C)CC2)C1 ... 440
Cc1c(C2C[C@@H]3C[C@H]2CN3)sc2[nH]c(-c3cn4ncnc4c4c3CCC4)c(C(C)C)c12 (some centres unmarked) ... 770
Cc1c(C2CCN(C(=O)[C@H]3COCCN3)CC2)sc2[nH]c(-c3cn4ncnc4c4c3CCO4)c(C(C)C)c12 ... 2950
Cc1c(C2CCC(N3CC4(CCNC4=O)C3)CC2)sc2[nH]c(-c3cn4ncnc4c4c3CCC4)c(C(C)C)c12 (centres unmarked) ... 260
Cc1c(C2CCN(C(=O)[C@H]3C[C@@H](O)CN3)CC2)sc2[nH]c(-c3cn4ncnc4c4c3CCC4)c(C(C)C)c12 ... 1330
Cc1c(C2CCNCC2)sc2[nH]c(-c3cn4ncnc4c4c3CCC4)c(C(C)C)c12 ... 110
Cc1c(C2CCN(C(=O)[C@H]3C[C@H](F)CN3)CC2)sc2[nH]c(-c3cn4ncnc4c4c3CCC4)c(C(C)C)c12 ... 680
Cc1c(C2CCN(CC(N)=O)CC2)sc2[nH]c(-c3cn4ncnc4c4c3COC4)c(C(C)C)c12 ... 4000
Cc1c(C2CCN(CC(N)=O)CC2)sc2[nH]c(-c3cn4ncnc4c4c3CCC4)c(C(C)C)c12 ... 350
Cc1c(C2CCC(N3CC4(CCN(C)C4=O)C3)CC2)sc2[nH]c(-c3cn4ncnc4c4c3CCC4)c(C(C)C)c12 (centres unmarked) ... 860

###

assayed.target: TLR8 (Homo sapiens)
Construct: Human peripheral blood mononuclear cells (PBMCs) consist of lymphocytes, monocytes and dendritic cells that express TLR7, TLR8 and TLR9; endogenous in cells; host or cells: cryopreserved human PBMCs from healthy donors
Sequence (Q9NR97 27-1041): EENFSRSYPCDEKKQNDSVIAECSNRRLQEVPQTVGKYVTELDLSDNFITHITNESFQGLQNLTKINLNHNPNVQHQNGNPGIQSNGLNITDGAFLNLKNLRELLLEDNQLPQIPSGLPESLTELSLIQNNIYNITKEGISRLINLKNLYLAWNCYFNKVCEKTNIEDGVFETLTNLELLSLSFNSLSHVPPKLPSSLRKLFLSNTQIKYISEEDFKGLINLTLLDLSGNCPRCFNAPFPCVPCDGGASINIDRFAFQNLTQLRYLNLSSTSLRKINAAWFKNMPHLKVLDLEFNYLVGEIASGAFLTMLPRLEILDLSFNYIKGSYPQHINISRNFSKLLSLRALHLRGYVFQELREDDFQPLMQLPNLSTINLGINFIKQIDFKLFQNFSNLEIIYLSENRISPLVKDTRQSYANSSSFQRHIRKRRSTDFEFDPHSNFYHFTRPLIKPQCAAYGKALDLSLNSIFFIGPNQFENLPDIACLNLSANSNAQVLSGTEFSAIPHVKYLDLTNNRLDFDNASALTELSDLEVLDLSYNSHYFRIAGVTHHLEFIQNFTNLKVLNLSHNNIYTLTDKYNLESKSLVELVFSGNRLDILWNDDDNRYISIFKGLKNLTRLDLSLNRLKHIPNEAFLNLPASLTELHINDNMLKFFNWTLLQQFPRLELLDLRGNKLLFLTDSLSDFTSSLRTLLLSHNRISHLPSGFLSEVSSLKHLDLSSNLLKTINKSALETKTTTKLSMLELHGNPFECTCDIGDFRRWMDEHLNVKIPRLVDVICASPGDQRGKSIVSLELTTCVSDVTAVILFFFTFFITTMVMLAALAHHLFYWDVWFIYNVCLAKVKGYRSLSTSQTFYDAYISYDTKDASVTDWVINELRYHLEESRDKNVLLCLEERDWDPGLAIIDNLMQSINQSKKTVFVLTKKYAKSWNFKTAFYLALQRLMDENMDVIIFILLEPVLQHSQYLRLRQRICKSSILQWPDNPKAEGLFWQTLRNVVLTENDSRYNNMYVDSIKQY
test.description: TLR8 human peripheral blood mononuclear cell (PBMC) cell-based assay
assay.context: human PBMCs; 1 h with antagonist, then TLR8 agonist Compound A 800 nM for 6 h; cytokines (TNFa and IL12p40) in supernatant; read-out: TLR-8 EC50
pEC50: −log10 of the molar value.
Decision: pEC50 compared against 9; not below it gives YES, below it gives NO.

Cc1c(C2CC3(CCN(CC(N)=O)C3)C2)sc2[nH]c(-c3cn4ncnc4c4c3CCC4)c(C(C)C)c12 (stereo not shown) [Example 9] ... YES
Cc1c(C2CCN(CC(N)=O)CC2)sc2[nH]c(-c3cn4ncnc4c4c3COC4)c(C(C)C)c12 [Example 45] ... NO
Cc1c(C2CCN(C(=O)[C@@H]3C[C@H](C(F)(F)F)CN3)CC2)sc2[nH]c(-c3cn4ncnc4c4c3CCC4)c(C(C)C)c12 [Example 39] ... NO
Cc1c(C2CCN(C(=O)[C@H]3C[C@H](F)CN3)CC2)sc2[nH]c(-c3cn4ncnc4c4c3CCC4)c(C(C)C)c12 [Example 17] ... NO
Cc1c(C2CCNCC2)sc2[nH]c(-c3cn4ncnc4c4c3CCO4)c(C(C)C)c12 [Example 35] ... NO
Cc1c(C2CCC(N3CC4(CCNC4=O)C3)CC2)sc2[nH]c(-c3cn4ncnc4c4c3CCC4)c(C(C)C)c12 (stereo not shown) [Example 27] ... NO
